Recorded values, source patent US9340577B2.

Each entry below lists one item and its recorded pIC50 value.
# test.system: DR4w4 (DRB1*0401) (Homo sapiens, UniProt P01903+P01911, A100K/A169T/F76Y/I96L/K127E/L162R/M171V/N62H/P40V/Q125Y/R42H/S133A/S149N/S66Y/V115G/V209L/W38E)
# protocol.text: biochemical
# Type: binding
pIC50: −log10 of the molar value. No end group written: not given here.
quantity.measured: pIC50

# entry.sequence, bound.type, numeric.value
rows = [
    ("VEFMSFLTALKRFLQ [Peptide 89.0015]", "=", 7.14),
    ("TPEWIQRQTVLQHSF [Peptide 89.0010]", "=", 7.10),
    ("ENSIQADTEAARALF [Peptide 90.0078]", "<", 4.70),
    ("LIQLKCPPILLTTNI [Peptide 89.0038]", "=", 5.42),
    ("QWAYDNDIVDDSEIA [Peptide 90.0036]", "=", 4.93),
    ("QQTVCREGVKRRLIL [Peptide 90.0129]", "=", 7.09),
    ("LVEVTLGEVPAAESPD [Peptide F160.17]", "=", 6.01),
    ("QQQMFLGTVKIPPTV [Peptide 89.0187]", "=", 7.15),
    ("LSHVKIPVVYRLVWD [Peptide 90.0020]", "=", 5.40),
    ("TLAVSKNKALQAIEL [Peptide 89.0150]", "<", 4.70),
    ("NGWFYVEAVIDRQTG [Peptide 90.0062]", "=", 7.16),
    ("DIAYKYAQLADVNSN [Peptide 89.0108]", "=", 7.06),
    ("HQVVPPMAVSKAKAC [Peptide 90.0012]", "=", 5.63),
]
